pKd reference
biological target: CDK12 (Homo sapiens); assay: Biochemical assay for CDK12 (kinase-tagged phage / qPCR competition binding); parameters: host or cells: E. coli BL21-derived host (T7 phage display) or HEK-293
Sequence (Q9NYV4 whole entry, species assumed): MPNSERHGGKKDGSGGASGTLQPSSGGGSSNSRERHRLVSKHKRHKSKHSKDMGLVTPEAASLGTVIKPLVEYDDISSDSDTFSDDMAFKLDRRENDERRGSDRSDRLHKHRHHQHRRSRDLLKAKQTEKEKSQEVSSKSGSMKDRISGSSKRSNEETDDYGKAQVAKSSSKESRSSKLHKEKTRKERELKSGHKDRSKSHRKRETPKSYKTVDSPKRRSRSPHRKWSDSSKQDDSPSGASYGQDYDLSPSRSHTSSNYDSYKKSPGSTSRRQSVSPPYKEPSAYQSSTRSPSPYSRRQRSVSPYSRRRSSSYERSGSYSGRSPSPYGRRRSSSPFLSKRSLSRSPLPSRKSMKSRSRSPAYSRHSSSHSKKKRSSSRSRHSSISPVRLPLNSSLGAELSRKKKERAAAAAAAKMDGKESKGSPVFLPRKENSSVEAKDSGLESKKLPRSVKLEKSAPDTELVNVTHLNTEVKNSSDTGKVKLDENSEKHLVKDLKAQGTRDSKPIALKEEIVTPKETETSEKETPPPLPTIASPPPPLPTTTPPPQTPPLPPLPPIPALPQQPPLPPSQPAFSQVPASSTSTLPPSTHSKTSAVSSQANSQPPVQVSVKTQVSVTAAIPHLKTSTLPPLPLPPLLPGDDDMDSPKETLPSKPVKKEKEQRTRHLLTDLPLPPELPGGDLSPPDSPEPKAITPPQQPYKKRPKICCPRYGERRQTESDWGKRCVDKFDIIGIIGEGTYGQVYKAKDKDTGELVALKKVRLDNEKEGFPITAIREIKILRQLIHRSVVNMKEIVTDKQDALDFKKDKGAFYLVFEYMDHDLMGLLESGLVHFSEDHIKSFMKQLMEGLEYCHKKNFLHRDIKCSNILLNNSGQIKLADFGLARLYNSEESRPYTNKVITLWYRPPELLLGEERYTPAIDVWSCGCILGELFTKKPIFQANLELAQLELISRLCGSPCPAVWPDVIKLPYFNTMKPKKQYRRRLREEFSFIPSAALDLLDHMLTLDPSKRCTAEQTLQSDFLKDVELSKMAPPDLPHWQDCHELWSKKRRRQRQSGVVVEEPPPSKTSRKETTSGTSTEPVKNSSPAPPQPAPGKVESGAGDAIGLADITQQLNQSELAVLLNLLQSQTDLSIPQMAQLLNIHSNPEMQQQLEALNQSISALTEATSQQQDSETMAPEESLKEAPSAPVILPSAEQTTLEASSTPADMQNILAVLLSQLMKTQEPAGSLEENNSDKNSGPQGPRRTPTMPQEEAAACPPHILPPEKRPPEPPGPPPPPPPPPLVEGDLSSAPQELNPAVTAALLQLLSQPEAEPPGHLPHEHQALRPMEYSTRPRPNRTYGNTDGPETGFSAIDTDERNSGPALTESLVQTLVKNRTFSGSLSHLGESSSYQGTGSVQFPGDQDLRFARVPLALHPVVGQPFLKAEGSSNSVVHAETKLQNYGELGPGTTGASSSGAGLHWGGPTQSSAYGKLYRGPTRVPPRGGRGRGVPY
pKd: −log10 of the molar value.

compound | pKd
C=CC(=O)NC(C)c1ccc(-c2ccc([C@H](C)C(=O)Nc3cc(C4CC4)[nH]n3)cc2)cn1 (stereo partly shown) | > 7.30
CC(C(=O)Nc1cc(C2CC2)[nH]n1)c1ccc(-c2ccc(CNC(=O)/C=C/CN3CCOCC3)cc2)cc1 (stereo not shown) | > 7.30
C=CC(=O)NCc1ncc(-c2ccc([C@H](C)C(=O)Nc3cc(C4CC4)[nH]n3)cc2)cc1F | > 7.30
CC(C(=O)Nc1cc(C2CC2)[nH]n1)c1ccc(-c2ccc(NC(=O)/C=C/CN3CCOCC3)cc2)cc1 (stereo not shown) | > 7.30
CC(C(=O)Nc1cc(C2CC2)[nH]n1)c1ccc(-c2ccc(NC(=O)/C=C/CN3CCOCC3)nc2)cc1 (single isomer, unassigned) [Compound 6] | 6.30 to 7.30
C=CC(=O)NC(CC)c1ccc(-c2ccc([C@H](C)C(=O)Nc3cc(C4CC4)[nH]n3)cc2)cn1 (stereo partly shown) | > 7.30
CC(C(=O)Nc1cc(C2CC2)[nH]n1)c1ccc(-c2ccc(NC(=O)/C=C/CN3CCOCC3)nc2)cc1 (single isomer, unassigned) [Compound 7] | > 7.30
C=CC(=O)NCc1ccc(C(C)C(=O)Nc2cc(C3CC3)[nH]n2)cc1 (single isomer, unassigned) | < 6.30
C=CC(=O)Nc1ccc(-c2ccc(C(C)C(=O)Nc3cc(C4CC4)[nH]n3)cc2)cc1 (racemic) | 6.30 to 7.30
C=CC(=O)NCc1ccc(C(C)C(=O)Nc2cc(C3CC3)[nH]n2)cn1 (stereo not shown) | 6.30 to 7.30
